Tested on: DMS-114
Test: NCI tumour cell line growth inhibition, 48 h
Activity calls are given as the source filed them. No stated cut-off is given here; in the data, active = GI50 up to about 1.1 µM and inactive = higher.
GI50 overview
Parameter: GI50

molecule=CCCc1ccc(/N=C\c2cc(OC)c(OC)c(OC)c2)cc1 parameter=GI50 value_observed="18.7 µM (inactive)"
molecule="COc1ccc(CN2C(=O)C(Cc3cc(OC)c(OC)c(C)c3OC)N(C(=O)OC(C)C)C(=O)/C2=C/c2cc(OC)c(OC)c(C)c2OC)cc1 (stereo not drawn)" parameter=GI50 value_observed="24.9 µM (inactive)"
molecule="CSc1nc(NC2OC(COC(C)=O)C(OC(C)=O)C(OC(C)=O)C2OC(C)=O)c(/N=C(\\C)C(C)=O)c(=O)[nH]1 (stereo not drawn)" parameter=GI50 value_observed="> 100 µM (inactive)"
molecule="CCN1C(=O)C(N=[N+]=[N-])(c2ccccc2)C(=O)c2ccccc21 (stereo not drawn)" parameter=GI50 value_observed="41.7 µM (inactive)"
molecule=O=C(NO)C(=O)Nc1cc(Cl)ccc1Cl parameter=GI50 value_observed="69.3 µM (inactive)"
molecule=Nc1c([N+](=O)[O-])nc(Cl)c2nncn12 parameter=GI50 value_observed="> 42 µM (inactive)"
molecule=CC1=C(C(=O)Nc2ccc([N+](=O)[O-])cc2)C(c2ccccc2F)C(C(=O)Nc2ccc([N+](=O)[O-])cc2)=C(C)N1 parameter=GI50 value_observed="5.07 µM (inactive)"
molecule="COc1ccc2nc(NC(=O)C(=O)C(C#N)c3ccc(Cl)c(Cl)c3)sc2c1 (stereo not drawn)" parameter=GI50 value_observed="78.9 µM (inactive)"
molecule=Cc1cc(S(=O)(=O)O)c(NC(=O)C(=O)Cc2cc(=O)oc3cc(O)ccc23)cc1Cl parameter=GI50 value_observed="> 100 µM (inactive)"
molecule="C[C@]12CCc3nn(-c4ccccc4)nc3C1CC[C@@H]1C2CC[C@]2(C)C(=O)CCC12 (stereo partly drawn)" parameter=GI50 value_observed="> 100 µM (inactive)"
molecule="Cc1ccc(NC(=O)CCC(=O)C2Cc3ccccc3C2=O)cc1C (stereo not drawn)" parameter=GI50 value_observed="> 100 µM (inactive)"
molecule=N#C/N=C(/N)NCN/C(N)=N\C#N parameter=GI50 value_observed="> 100 µM (inactive)"
molecule="COC(=O)C(=Cc1cc(OC)c(OC)c(OC)c1-c1cc2c(cc1C1(C)OCCS1)OCO2)C(=O)OC (stereo not drawn)" parameter=GI50 value_observed="19.8 µM (inactive)"

###

System: KM-20L2
Test: NCI tumour cell line growth inhibition, 48 h
The source made the active and inactive calls. Rule as the data show it: active = GI50 up to about 1.1 µM and inactive = higher.
Classes used: active, inactive

compound="O=[N+]([O-])c1ccc(C(O)/C(=N/O)c2nc3ccc(Cl)cc3nc2O)cc1 (centres undefined)" assigned_label=inactive
compound="CC(=O)OCC1OC(n2cc(F)c(=O)[nH]c2=O)C(NC(=O)OCc2ccccc2)C(OC(C)=O)C1OC(C)=O (centres undefined)" assigned_label=inactive
compound="COC(=O)/C=C/C1C(C(=O)OC)C2(C(=O)OC)CCC1(C(=O)OC)N2 (centres undefined)" assigned_label=inactive
compound=CCCCCCCCNC(=O)SCCCC assigned_label=inactive
compound="Nc1ncn([C@@H]2C=C(CO)C(O)C2O)c(=O)n1 (some centres undefined)" assigned_label=inactive
compound="CCOP(=O)(OCC)C1=NC=CC=CC1n1c(-c2ccccc2)nn(CC)c1=O (centres undefined)" assigned_label=inactive
compound="CC(=O)C1C(=O)C(=O)N(c2ccccc2C(C)C)C1=O (centres undefined)" assigned_label=inactive
compound="CCSC(=O)C1(C)OC2CCCCC2C1=O (centres undefined)" assigned_label=inactive
compound=O=C1OC(=O)c2c1c(-c1ccccc1)nc1ccccc21 assigned_label=inactive
compound=CCCCCC/C(CC(=O)CCC(=O)NCCc1ccccc1)=N\NC(=O)c1ccc2ccccc2c1O assigned_label=inactive
compound=Nc1nc(Cl)cc(NCCCCCCCCCCCCNc2cc(Cl)nc(N)n2)n1 assigned_label=inactive
compound="Cc1ccc(C2(C)NC(=S)N(NC(N)=S)C2=S)cc1 (centres undefined)" assigned_label=inactive
compound=Cc1cc(S(=O)(=O)O)c(NC(=O)C(=O)Cc2cc(=O)oc3cc(O)ccc23)cc1Cl assigned_label=inactive
compound=O=C(/N=N/C(=O)OCc1ccccc1)OCc1ccccc1 assigned_label=inactive
compound="C=C1C(=O)C[C@@]23CCC[C@@]12CC(O)C3 (some centres undefined)" assigned_label=inactive
compound=O=S(=O)(C/C(=N\O)c1ccccc1)c1ccccc1 assigned_label=inactive
compound=Cc1cc(C(C)C)cc(=O)c(O)c1 assigned_label=inactive
compound=COc1cc2ccnc(-c3n[nH]c4cc(OC)c(OC)cc34)c2cc1OC assigned_label=inactive
compound="CCOC(=O)c1ccc(N[C@@H]2c3cc4c(cc3C(c3cc(OC)c(O)c(OC)c3)[C@H]3C(=O)OCC32)OCO4)cc1O (some centres undefined)" assigned_label=inactive
compound=Cc1cc(NC(=O)NC(=O)c2ccccc2NC(=O)CN(C)C)ccc1Oc1ncc(Br)cn1 assigned_label=inactive
compound=CCOC(=O)CCCO assigned_label=inactive
compound=Nc1c([N+](=O)[O-])nc(Cl)c2nncn12 assigned_label=inactive
compound="COC(=O)/C(C#N)=C1\\CCC(OC)N1 (centres undefined)" assigned_label=inactive
compound=CC(C)C(=O)/C=C/c1ccccc1 assigned_label=inactive
compound=O=c1c(Cl)c(Cl)cnn1CCCl assigned_label=inactive
compound="C[C@@H]1O[C@@H](O[C@H]2CC[C@]3(C=O)[C@H]4CC[C@]5(C)[C@@H](c6ccc(=O)oc6)CC[C@]5(O)[C@@H]4CC[C@]3(O)C2)[C@H](O)[C@H](O)[C@H]1O[C@@H]1O[C@H](CO)[C@@H](O)[C@H](O)[C@H]1O [HELLEBRIN]" assigned_label=active
compound=COc1ccc2c3c([nH]c2c1CC=C(C)C)C(=O)C=C(C)C3=O assigned_label=inactive
compound=O=c1[nH]c2c3ccccc3ccc2c2cc3c(cc12)OCO3 assigned_label=inactive
compound=CC(=O)N1CCC(=O)/C(=C/c2ccccc2)C1 assigned_label=inactive

###

System: PC-3
Test: NCI tumour cell line growth inhibition, 48 h
Activity calls are given as the source filed them. No stated cut-off is given here; in the data, active = GI50 up to about 1.1 µM and inactive = higher.
Parameter: GI50

compound=O=C(CCc1ccc(O)c(O)c1)NCCc1ccccc1 measurement_target=PC-3 parameter=GI50 value_observed="> 37.2 µM (inactive)"
compound="COc1ccc(-c2cs/c(=N\\c3ccccc3)n2CC(O)c2ccc([N+](=O)[O-])cc2)cc1 (stereo not drawn)" measurement_target=PC-3 parameter=GI50 value_observed="> 100 µM (inactive)"
compound=c1ccc2c(c1)CC1=C(O2)c2ccccc2OC1 measurement_target=PC-3 parameter=GI50 value_observed="38.2 µM (inactive)"
compound=Cn1c(-c2cccs2)cc(-c2ccsc2)c1-c1ccsc1 measurement_target=PC-3 parameter=GI50 value_observed="> 100 µM (inactive)"
compound=COC(=O)C1=C(C(=O)OC)C(N(C)C)C(C(=O)OC)=C(C(=O)OC)S1 measurement_target=PC-3 parameter=GI50 value_observed="> 100 µM (inactive)"
compound=CSc1nc(O)c(C#N)c(-c2ccccc2)n1 measurement_target=PC-3 parameter=GI50 value_observed="> 100 µM (inactive)"
compound="C=CCC1(O)c2ccccc2C(=O)c2c(O)ccc(O)c21 (stereo not drawn)" measurement_target=PC-3 parameter=GI50 value_observed="8.2 µM (inactive)"
compound=CCN(CC)C1=Nc2ccccc2-n2ccnc2C1 measurement_target=PC-3 parameter=GI50 value_observed="> 100 µM (inactive)"
compound="Cc1ccc(C2=Nc3c(N)nc(N)nc3NC(c3ccccc3)C2)cc1 (stereo not drawn)" measurement_target=PC-3 parameter=GI50 value_observed="10.5 µM (inactive)"
compound=O=C1C(c2c(O)[nH]c3ccc(F)cc23)=Nc2ccccc21 measurement_target=PC-3 parameter=GI50 value_observed="> 100 µM (inactive)"
compound="O=C(O)C(O)C(O)C(O)C(O)CO.[Ba+2] (stereo not drawn)" measurement_target=PC-3 parameter=GI50 value_observed="> 100 µM (inactive)"
compound=O=c1c(Cc2ccc(Cl)cc2)nnc2sc(-c3ccc([N+](=O)[O-])cc3)nn12 measurement_target=PC-3 parameter=GI50 value_observed="20.7 µM (inactive)"
compound="CC1(C)CC2(C)CC1CC2(O)c1ccccc1 (stereo not drawn)" measurement_target=PC-3 parameter=GI50 value_observed="> 100 µM (inactive)"
compound=c1ccc2c(Cc3nnc4sc(SSc5nn6c(Cc7c[nH]c8ccccc78)nnc6s5)nn34)c[nH]c2c1 measurement_target=PC-3 parameter=GI50 value_observed="19.3 µM (inactive)"
compound=N#C/C(=N/Nc1[nH]cnc1C(N)=O)C(=O)Nc1ccccc1 measurement_target=PC-3 parameter=GI50 value_observed="7.89 µM (inactive)"
compound=Cc1sc2nc(N(C)C)oc(=O)c2c1C measurement_target=PC-3 parameter=GI50 value_observed="63.1 µM (inactive)"
compound=CC(=O)OCCn1c(Cc2ccc([N+](=O)[O-])cc2)nn(C(C)=O)c1=O measurement_target=PC-3 parameter=GI50 value_observed="> 100 µM (inactive)"
compound="COC(=O)C1OC(O[C@H]2CC[C@]3(C)[C@H]4CC=C5[C@@H]6CC(C)(C)CC[C@]6(C(=O)OC6OCC(O)C(O)C6OC6OC(C)C(OC7OCC(O)C(O)C7O)C(OC7OCC(O)(CO)C7O)C6O)[C@H](O)C[C@@]5(C)[C@]4(C)CC[C@H]3C2(C)C)C(O)C(O)C1O (stereo partly drawn)" measurement_target=PC-3 parameter=GI50 value_observed="3.85 µM (inactive)"
compound=CC/C(Cl)=N\OC(=O)Nc1ccccc1OC(F)(F)F measurement_target=PC-3 parameter=GI50 value_observed="18.1 µM (inactive)"
compound=Nc1nc(Nc2ccc(Cl)cc2)sc1C(=O)c1c[nH]c2ccccc12 measurement_target=PC-3 parameter=GI50 value_observed="14 µM (inactive)"
compound="O=C(CC(c1ccccc1)C(C(=O)c1ccncc1)C(CC(=O)c1ccncc1)c1ccccc1)c1ccncc1 (stereo not drawn)" measurement_target=PC-3 parameter=GI50 value_observed="46.2 µM (inactive)"
compound=O=c1n(/N=C/c2ccccc2)c(=O)n2n1C1C=CC2CC1 measurement_target=PC-3 parameter=GI50 value_observed="> 100 µM (inactive)"
compound="O=C1CCC2(c3ccc(F)cc3)Nc3ncncc3N12 (stereo not drawn)" measurement_target=PC-3 parameter=GI50 value_observed="> 10 µM (inactive)"
compound="CC(CN1NC12CCCC2)N1NC12CCCC2 (stereo not drawn)" measurement_target=PC-3 parameter=GI50 value_observed="> 100 µM (inactive)"
compound="O=C1c2cccnc2C(=O)C2C3C=CC(C3)C12 (stereo not drawn)" measurement_target=PC-3 parameter=GI50 value_observed="10.2 µM (inactive)"
compound=CCOC(=O)C(=CNc1ccc(S(N)(=O)=O)cc1)C(=O)OCC measurement_target=PC-3 parameter=GI50 value_observed="> 100 µM (inactive)"
compound=CCCCCCCCCCCCCC[S+](C)C measurement_target=PC-3 parameter=GI50 value_observed="1.24 µM (inactive)"
compound=Cc1ccc(-c2n[nH]c(=O)n2/N=C\c2ccccc2O)cc1 measurement_target=PC-3 parameter=GI50 value_observed="> 100 µM (inactive)"
compound=Cc1c(O)nc(-n2[nH]c3c(c2=O)CCCC3)[nH]c1=O measurement_target=PC-3 parameter=GI50 value_observed="> 100 µM (inactive)"
compound=Cc1nc(C)c(N2CCN(C#N)CC2)c(O)n1 measurement_target=PC-3 parameter=GI50 value_observed="> 100 µM (inactive)"
compound=N#C/C(C(=O)Nc1ccccc1)=C(/N)N1CCCCC1 measurement_target=PC-3 parameter=GI50 value_observed="> 100 µM (inactive)"
compound=COc1ccc(C)cc1NC(=S)N/N=C/c1ccco1 measurement_target=PC-3 parameter=GI50 value_observed="43.4 µM (inactive)"
compound="CCCC(=O)Nc1cc(/C=C/C(=O)N2CC(CCl)c3c2cc(OCc2ccccc2)c2[nH]cc(C)c32)n(C)c1 (stereo not drawn)" measurement_target=PC-3 parameter=GI50 value_observed="0.103 µM (active)"
